Origin of the recorded values: patent US20230002367A1

- system_under_test: SMARCA2 (Homo sapiens)
- Construct: endogenous in cells
- test: SMARCA2 HiBiT degradation assay (cellular)
- Format: cell-based
- condition: SMARCA2 HiBiT cells, luminescence readout, 11-point titration from 10 μM, 6 hours or 16 hours; read-out: HiBit A549 SMARCA2 IP
property_measured: DC50 (nM)
Reply numerically in nM, unit not repeated.

Some solved entries appear below for comparison.
molecule: Cc1ncsc1-c1ccc(CNC(=O)[C@@H]2C[C@H](O)CN2C(=O)[C@@H](NC(=O)CCCCCC(=O)N2CCC(Cc3cccc(N4C5CCC4CN(c4cc(-c6ccccc6O)nnc4N)C5)c3)CC2)C(C)(C)C)cc1
system_under_test: SMARCA2 (Homo sapiens)
DC50, nM: 995
//
molecule: Cc1ncsc1-c1ccc([C@H](C)NC(=O)[C@@H]2C[C@@H](O)CN2C(=O)[C@@H](NC(=O)CCCCCCCCC(=O)N(C)CCCN(C)c2ccc(CCOc3cc(-c4ccccc4O)nnc3N)cc2)C(C)(C)C)cc1 (racemic)
system_under_test: SMARCA2 (Homo sapiens)
DC50, nM: 515
//
molecule: Cc1ncsc1-c1ccc(CNC(=O)[C@@H]2C[C@H](O)CN2C(=O)[C@@H](NC(=O)CCCCCCCCCC(=O)N2CCC(Cc3cccc(N4C5CCC4CN(c4cc(-c6ccccc6O)nnc4N)C5)c3)CC2)C(C)(C)C)cc1
system_under_test: SMARCA2 (Homo sapiens)
DC50, nM: 487

Form: molecule = Cc1ncsc1-c1ccc(CNC(=O)[C@@H]2C[C@@H](O)CN2C(=O)[C@@H](NC(=O)CCCCCCCCC(=O)NC2C3CCC2CN(c2cc(-c4ccccc4O)nnc2N)C3)C(C)(C)C)cc1 (stereo partly shown) ; DC50 = 1010

###

Some compounds, each annotated with its measured Emax.
- system_under_test: SMARCA2 (Homo sapiens)
- Construct: endogenous in cells
- test: SMARCA2 HiBiT degradation assay (cellular)
- Type: cell-based
- condition: A549, Emax = amount of residual protein remaining in the cell following compound treatment
Reply numerically in %, unit not repeated.

structure_as_smiles: Cc1ncsc1-c1ccc([C@H](C)NC(=O)[C@@H]2C[C@@H](O)CN2C(=O)[C@@H](NC(=O)CCCCCCCCC(=O)N2CCN(c3cccc(OC4CN(c5cc(-c6ccccc6O)nnc5N)C4)c3)CC2)C(C)(C)C)cc1
system_under_test: SMARCA2 (Homo sapiens)
unit_tag: %
Emax: 28

structure_as_smiles: Cc1ncsc1-c1ccc(CNC(=O)[C@@H]2C[C@@H](O)CN2C(=O)[C@H](NC(=O)CCCCCC(=O)N2CCN(CCOc3cccc(N4C5CCC4CN(c4cc(-c6ccccc6O)nnc4N)C5)c3)CC2)C(C)(C)C)cc1
system_under_test: SMARCA2 (Homo sapiens)
unit_tag: %
Emax: 58

structure_as_smiles: Cc1ncsc1-c1ccc(CNC(=O)[C@@H]2C[C@@H](O)CN2C(=O)[C@@H](NC(=O)CCCCCCCCCC(=O)N2CCN(CCOc3cccc(N4C5CCC4CN(c4cc(-c6ccccc6O)nnc4N)C5)c3)CC2)C(C)(C)C)cc1
system_under_test: SMARCA2 (Homo sapiens)
unit_tag: %
Emax: 20

Proceeding to the next compound to report its Emax.
Form: compound = Cc1ncsc1-c1ccc(CNC(=O)[C@@H]2C[C@H](O)CN2C(=O)[C@@H](NC(=O)CCCCCCCCCC(=O)N2CCC(Cc3cccc(N4C5CCC4CN(c4cc(-c6ccccc6O)nnc4N)C5)c3)CC2)C(C)(C)C)cc1 ; Emax = 24

###

Some molecules, each annotated with its measured DC50.
- system_under_test: SMARCA2 (Homo sapiens)
- Construct: endogenous in cells
- test: SMARCA2 HiBiT degradation assay (cellular)
- Type: cell-based
- condition: SMARCA2 HiBiT cells, luminescence readout, 11-point titration from 10 μM, 6 hours or 16 hours; read-out: HiBit A549 SMARCA2 IP

molecule: Cc1ncsc1-c1ccc([C@H](C)NC(=O)[C@@H]2C[C@@H](O)CN2C(=O)[C@@H](NC(=O)CCOCCC(=O)N2CCN(c3ccc(CN4CCCC(Oc5cc(-c6ccccc6O)nnc5N)C4)cc3)CC2)C(C)(C)C)cc1 (mixture of isomers)
DC50: 589 nM
--
molecule: Cc1ncsc1-c1ccc(CNC(=O)[C@@H]2C[C@@H](O)CN2C(=O)[C@@H](NC(=O)CCCCCCCCCC(=O)N2CCN(CCOc3cccc(N4C5CCC4CN(c4cc(-c6ccccc6O)nnc4N)C5)c3)CC2)C(C)(C)C)cc1
DC50: 104 nM
--
molecule: Cc1ncsc1-c1ccc(CNC(=O)[C@@H]2C[C@@H](O)CN2C(=O)[C@@H](NC(=O)CCCCCCCCC(=O)N2CCN(CCOc3ccccc3N3C4CCC3CN(c3cc(-c5ccccc5O)nnc3N)C4)CC2)C(C)(C)C)cc1
DC50: 2580 nM

Proceeding to the next molecule to report its DC50.
Form: molecule = Cc1ncsc1-c1ccc(CNC(=O)[C@@H]2C[C@@H](O)CN2C(=O)[C@@H](NC(=O)CCCCCCCCC(=O)N2CCN(Cc3cccc(CN4C5CCC4CN(c4cc(-c6ccccc6O)nnc4N)C5)c3)CC2)C(C)(C)C)cc1 ; DC50 = 1110 nM

###

Some compounds, each annotated with its measured DC50.
- system_under_test: SMARCA2 (Homo sapiens, UniProt P51531)
- Construct: endogenous in cells
- Sequence (P51531 whole entry): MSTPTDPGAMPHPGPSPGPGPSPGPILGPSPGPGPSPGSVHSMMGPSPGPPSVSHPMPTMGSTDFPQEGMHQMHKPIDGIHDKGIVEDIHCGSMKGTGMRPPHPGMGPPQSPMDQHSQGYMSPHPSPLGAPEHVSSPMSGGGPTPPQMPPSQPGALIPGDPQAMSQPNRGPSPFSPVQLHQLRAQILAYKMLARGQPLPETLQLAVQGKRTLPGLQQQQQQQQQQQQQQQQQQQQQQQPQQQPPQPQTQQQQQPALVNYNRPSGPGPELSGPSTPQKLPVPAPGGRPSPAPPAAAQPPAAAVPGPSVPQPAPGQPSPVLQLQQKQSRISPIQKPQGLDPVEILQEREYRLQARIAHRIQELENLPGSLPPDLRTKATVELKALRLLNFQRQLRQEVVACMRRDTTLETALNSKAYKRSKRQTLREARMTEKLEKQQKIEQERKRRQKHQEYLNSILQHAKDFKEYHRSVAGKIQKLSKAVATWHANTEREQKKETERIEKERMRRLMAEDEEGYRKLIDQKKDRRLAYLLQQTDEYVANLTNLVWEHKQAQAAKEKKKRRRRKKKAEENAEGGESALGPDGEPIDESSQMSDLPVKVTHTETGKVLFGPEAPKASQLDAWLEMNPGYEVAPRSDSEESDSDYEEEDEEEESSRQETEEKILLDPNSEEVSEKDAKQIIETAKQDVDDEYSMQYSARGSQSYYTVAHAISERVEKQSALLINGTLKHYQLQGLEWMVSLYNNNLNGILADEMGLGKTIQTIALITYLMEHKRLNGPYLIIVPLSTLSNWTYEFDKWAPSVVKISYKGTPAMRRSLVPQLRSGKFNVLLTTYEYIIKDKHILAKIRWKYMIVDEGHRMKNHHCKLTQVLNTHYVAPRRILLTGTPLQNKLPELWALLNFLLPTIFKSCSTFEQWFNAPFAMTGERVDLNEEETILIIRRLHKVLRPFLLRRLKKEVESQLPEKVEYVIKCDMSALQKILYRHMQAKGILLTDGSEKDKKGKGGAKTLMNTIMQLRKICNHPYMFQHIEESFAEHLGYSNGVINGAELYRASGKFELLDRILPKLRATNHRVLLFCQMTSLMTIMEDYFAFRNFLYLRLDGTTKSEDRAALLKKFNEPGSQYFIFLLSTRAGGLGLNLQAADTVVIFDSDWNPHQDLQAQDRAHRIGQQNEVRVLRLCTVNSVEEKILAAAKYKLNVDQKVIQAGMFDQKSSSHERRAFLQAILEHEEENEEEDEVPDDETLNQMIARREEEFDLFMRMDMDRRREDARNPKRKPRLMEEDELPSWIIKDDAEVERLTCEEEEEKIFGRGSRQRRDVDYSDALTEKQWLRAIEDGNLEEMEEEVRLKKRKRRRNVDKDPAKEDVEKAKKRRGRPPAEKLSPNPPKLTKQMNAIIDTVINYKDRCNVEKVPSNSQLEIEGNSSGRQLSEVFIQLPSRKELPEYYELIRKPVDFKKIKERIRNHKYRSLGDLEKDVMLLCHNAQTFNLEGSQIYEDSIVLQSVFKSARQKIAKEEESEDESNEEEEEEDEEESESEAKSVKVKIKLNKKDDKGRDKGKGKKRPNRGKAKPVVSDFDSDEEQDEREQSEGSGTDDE
- test: SMARCA2 HiBiT degradation assay (cellular)
- Type: cell-based
- condition: SMARCA2 HiBiT cells, luminescence readout, 11-point titration from 10 μM, 6 hours or 16 hours; read-out: HiBit A549 SMARCA2 IP
Reply numerically in nM, unit not repeated.

Some solved entries appear below for comparison.
compound: Cc1ncsc1-c1ccc([C@H](C)NC(=O)[C@@H]2C[C@@H](O)CN2C(=O)[C@@H](NC(=O)CCCCCCCCCCCCC(=O)N2CCN(CCOc3cccc(CCOc4cc(-c5ccccc5O)nnc4N)c3)CC2)C(C)(C)C)cc1
DC50 [nM]: 300
--
compound: Cc1ncsc1-c1ccc([C@H](C)NC(=O)[C@@H]2C[C@@H](O)CN2C(=O)[C@@H](NC(=O)CCCCCC(=O)N(C)CC(COc2cc(-c3ccccc3O)nnc2N)c2ccccc2)C(C)(C)C)cc1 (mixture of isomers)
DC50 [nM]: 1010
--
compound: Cc1ncsc1-c1ccc([C@H](C)NC(=O)[C@@H]2C[C@@H](O)CN2C(=O)[C@@H](NC(=O)CCCCCCCCCCCCC(=O)N2CCN(c3cccc(N4CCCC(Oc5cc(-c6ccccc6O)nnc5N)C4)c3)CC2)C(C)(C)C)cc1 (mixture of isomers)
DC50 [nM]: 579

Form: compound = Cc1ncsc1-c1ccc([C@H](C)NC(=O)[C@@H]2C[C@@H](O)CN2C(=O)[C@@H](NC(=O)CCCCCC(=O)N2CCN(Cc3cccc(OC4CN(c5cc(-c6ccccc6O)nnc5N)C4)c3)CC2)C(C)(C)C)cc1 ; DC50 = 789

Form: compound = Cc1ncsc1-c1ccc([C@H](C)NC(=O)[C@@H]2C[C@@H](O)CN2C(=O)[C@@H](NC(=O)CCCCCC(=O)N2CCN(c3ccc(N4CCCC(Oc5cc(-c6ccccc6O)nnc5N)C4)cc3)CC2)C(C)(C)C)cc1 (mixture of isomers) ; DC50 = 119

Form: compound = Cc1ncsc1-c1ccc(CNC(=O)[C@@H]2C[C@@H](O)CN2C(=O)[C@@H](NC(=O)CCCCCCCCC(=O)N2CCOC3(CCN(c4cc(-c5ccccc5O)nnc4N)CC3)C2)C(C)(C)C)cc1 ; DC50 = 2460

Form: compound = Cc1ncsc1-c1ccc(CNC(=O)[C@@H]2C[C@@H](O)CN2C(=O)[C@H](NC(=O)CCCCCC(=O)N2CCN(CCOc3cccc(N4C5CCC4CN(c4cc(-c6ccccc6O)nnc4N)C5)c3)CC2)C(C)(C)C)cc1 ; DC50 = 733

Form: compound = Cc1ncsc1-c1ccc(CNC(=O)[C@@H]2C[C@@H](O)CN2C(=O)[C@@H](NC(=O)CCCCCCCCC(=O)N2CCN(CCOc3ccc(N4C5CCC4CN(c4cc(-c6ccccc6O)nnc4N)C5)cc3)CC2)C(C)(C)C)cc1 ; DC50 = 2320
